Source of measurements: paper PMC5059743

Biological target: human eEFSec (Homo sapiens, UniProt P57772, H96A)
Construct: intact full-length, N-terminal 6xHis tag (pET15b, no tag removal described), E. coli Lemo21(DE3); monomer in solution; SeMet form also made for phasing
Sequence (P57772 whole entry H96A): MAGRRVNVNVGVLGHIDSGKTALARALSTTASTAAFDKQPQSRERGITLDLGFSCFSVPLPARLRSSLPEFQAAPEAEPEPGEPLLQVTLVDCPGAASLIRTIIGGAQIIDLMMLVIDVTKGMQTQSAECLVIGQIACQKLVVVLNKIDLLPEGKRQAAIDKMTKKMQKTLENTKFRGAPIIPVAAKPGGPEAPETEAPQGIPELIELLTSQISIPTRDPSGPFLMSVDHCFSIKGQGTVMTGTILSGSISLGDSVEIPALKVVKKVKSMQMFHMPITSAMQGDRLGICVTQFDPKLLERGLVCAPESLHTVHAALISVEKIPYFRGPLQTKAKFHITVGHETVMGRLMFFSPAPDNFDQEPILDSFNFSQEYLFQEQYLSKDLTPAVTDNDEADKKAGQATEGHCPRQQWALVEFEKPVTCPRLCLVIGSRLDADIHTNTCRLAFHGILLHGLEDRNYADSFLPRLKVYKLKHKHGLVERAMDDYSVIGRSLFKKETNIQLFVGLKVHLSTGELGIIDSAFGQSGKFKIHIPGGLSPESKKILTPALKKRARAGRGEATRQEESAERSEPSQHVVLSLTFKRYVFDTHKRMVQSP
Test: isothermal titration calorimetry
ASSAY_METRIC: Kd (nM)

ENTRY_SMILES: Nc1nc2c(ncn2[C@@H]2O[C@H](COP(=O)(O)OP(=O)(O)O)[C@@H](O)[C@H]2O)c(=O)[nH]1
SYSTEM_UNDER_TEST: human eEFSec (Homo sapiens, UniProt P57772, H96A)
VALUE_MEASURED: 1300
--
ENTRY_SMILES: Nc1nc2c(ncn2[C@@H]2O[C@H](COP(=O)(O)OP(=O)(O)OP(=O)(O)O)[C@@H](O)[C@H]2O)c(=O)[nH]1
SYSTEM_UNDER_TEST: human eEFSec (Homo sapiens, UniProt P57772, H96A)
VALUE_MEASURED: 1600
